# assayed_target: HLA-A*0206 (Human)
# protocol_description: competition vs 125I probe, purified HLA
metric: IC50 (µM)

# binder, recorded_result
records = [
    ("CTTIHYNYM [p53.229 CTTIHYNYM]", 0.561),
]
